Taken from patent US20090264650A1.

subject of test: 11βHSD1 (Homo sapiens, UniProt P28845)
Construct: microsome fraction
Sequence (P28845 whole entry): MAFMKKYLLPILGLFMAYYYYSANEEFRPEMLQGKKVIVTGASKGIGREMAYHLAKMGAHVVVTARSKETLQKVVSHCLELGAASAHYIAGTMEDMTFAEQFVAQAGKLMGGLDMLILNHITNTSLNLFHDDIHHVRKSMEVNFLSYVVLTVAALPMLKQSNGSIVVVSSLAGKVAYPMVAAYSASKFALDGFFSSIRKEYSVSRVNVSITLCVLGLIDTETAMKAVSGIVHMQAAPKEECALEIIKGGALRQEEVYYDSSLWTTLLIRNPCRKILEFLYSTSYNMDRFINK
test details: Determination of 11βHSD1 inhibitory activity (microsome fraction, cortisone to cortisole, competitive ELISA)
conditions: microsome fraction of Reference Example 2a; 500 nM cortisone, 400 μM NADPH substrate solution; room temperature 60 min
property label: IC50 (nM)

O=C(Nc1ccc(CO)cc1)Nc1ccc(CC2CCN(C3C4CC5CC3CC(O)(C5)C4)C2=O)c(Cl)c1 (stereo not shown) [Example 468A]
19
Cc1ccccc1CN1CCCN(Cc2c(Cl)cccc2Cl)C1=O
130

I. CC1(O)CCC(N2CCC(Cc3ccc(OCC(=O)NCc4ccc(C(F)(F)F)cc4)cc3Cl)C2=O)CC1 (single isomer, unassigned) [Example 603A]
II. CC1(O)CCC(N2CCC(Cc3ccc(OCC(=O)NCc4ccc(C(F)(F)F)cc4)cc3Cl)C2=O)CC1 (single isomer, unassigned) [Example 602A]
Would you let me know which has the greater IC50 value, I or II ? Answer by quoting the chosen item's label.
I
